- procedure text: Cytotoxicity against african green monkey Vero cells after 48 hrs by MTT assay
- Assay type: cell-based
- run parameters: chlorocebus sabaeus
readout name: CC50 at 48 h (µM)

* C/C(=C\CC[C@H](C)[C@@H]1CC[C@@H](C)c2c(O)cc(C)cc21)CO | 132
* Cc1cc(O)c2c(c1)[C@H]([C@@H](C)CCC1OC1(C)C)CC[C@H]2C (mixture of isomers) | 661
* Cc1cc(O)c2c(c1)[C@H]([C@@H](C)CCC(N)C(C)(C)O)CC[C@H]2C (some centres not stated) | 158
* Cc1cc(O)c2c(c1)[C@H]([C@@H](C)CCC(N=[N+]=[N-])C(C)(C)O)CC[C@H]2C (some centres not stated) | 127
* C/C(C=O)=C\CC[C@H](C)[C@@H]1CC[C@@H](C)c2c(O)cc(C)cc21 | 116
* Cc1cc(O)c2c(c1)[C@H]([C@@H](C)CCC(O)C(C)(C)N)CC[C@H]2C (some centres not stated) | 141
* Cc1cc(O)c2c(c1)[C@H]([C@@H](C)CCCC(C)C)CC[C@H]2C | 192
* Cc1cc(O)c2c(c1)[C@H]([C@@H](C)CCC(O)C(C)(C)N=[N+]=[N-])CC[C@H]2C (some centres not stated) | 231
* CC(C)=CCC[C@H](C)[C@@H]1CC[C@@H](C)c2c(O)cc(C)cc21 | 123

###

- procedure text: Selectivity index, ratio of CC50 for african green monkey Vero cells to MIC for Mycobacterium tuberculosis H37Rv ATCC 27294
- Assay type: functional
Recorded Selectivity Index for the following compounds
readout name: Selectivity Index

• CC(C)=CCC[C@H](C)[C@@H]1CC[C@@H](C)c2c(O)cc(C)c(Cc3cc([N+](=O)[O-])cc([N+](=O)[O-])c3)c21 = >45
• CC(=O)Oc1cc(C)cc2c1[C@H](C)CC[C@H]2[C@@H](C)CCC=C(C)C [LEUBETHANYL ACETATE] = >22.6
• CC[C@@H](CO)NCCN[C@@H](CC)CO [ETHAMBUTOL] = >67

###

- procedure text: Cytotoxicity against african green monkey Vero cells after 48 hrs by MTT assay
- Assay type: cell-based
- run parameters: chlorocebus sabaeus
Recorded CC50 at 48 h for the following compounds
readout name: CC50 at 48 h

* CC[C@@H](CO)NCCN[C@@H](CC)CO | > 500 µM
* CC(C)=CCC[C@H](C)[C@@H]1CC[C@@H](C)c2c(O)cc(C)c(Cc3cc([N+](=O)[O-])cc([N+](=O)[O-])c3)c21 | > 770 µM
* CC(=O)Oc1cc(C)cc2c1[C@H](C)CC[C@H]2[C@@H](C)CCC=C(C)C [LEUBETHANYL ACETATE] | > 1100 µM
